Test system: NCI/ADR-RES ovarian
Experiment: NCI tumour cell line growth inhibition, 48 h
Listed here are compounds together with their documented GI50.

Previously resolved entries follow.
O=c1ccccc(-c2ccc(-c3ccco3)cc2)c1O :: 388 nM
CC(C)(C)N1CC(OC(N)=O)C1 :: > 100000 nM

Item under review: O=C(O[C@H]1CN[C@H](C#Cc2cc3ncnc(Nc4ccc(OCc5cccc(F)c5)c(Cl)c4)c3s2)C1)N1CCOCC1 . Reported GI50?
6300 nM

Same for COc1cc2c(=O)n(CCCn3ccnc3)c3c4cc5c(cc4ccc3c2cc1OC)OCO5
1080 nM

// query: CN(C)CCCN=c1cc2c(=O)n(CCCN(C)C)c(=O)c3c(NCCCN(C)C)cc4c(O)n(CCCN(C)C)c(=O)c1c4c3-2
12300 nM

Then what about the compound COc1cc(/C=C2\CN(S(=O)(=O)c3ccc(C)cc3)C/C(=C\c3cc(CN4CCCCC4)c(O)c(OC)c3)C2=O)cc(CN2CCCCC2)c1O ?
1220 nM

* * *

Test system: NCI-H522 lung
Test: NCI tumour cell line growth inhibition, 48 h
Parameter: TGI. Scope: all listed entries.

Examples with answers:
Nn1c(SCC(=O)NCc2ccccc2)nc2ccccc2c1=O :: > 100 µM
COc1cc2c(cc1OC)C(Cc1ccccc1CCCl)=NCC2 :: > 100 µM
Cn1c2ccccc2n2c(=O)c3cccnc3c(C#N)c12 :: > 100 µM
COC(=O)[C@H](Cc1ccccc1)NP(=O)(O)OCC1OC(n2cc(C)c(=O)[nH]c2=O)CC1N=[N+]=[N-] (stereo partly drawn) :: > 100 µM
CCOC(=O)C(C)(C)/C=C\C(Cl)=C(Cl)Cl :: > 100 µM
CC(=O)Nc1ccc2oc(=O)c3ccccc3c2c1 :: > 100 µM
CC1C(c2ccc3c(c2)OCO3)c2cc3c(cc2OC1N1CCCCC1)OCO3 (stereo not drawn) :: > 100 µM
COc1cc(/C=C2\CN(S(=O)(=O)c3ccc(C)cc3)C/C(=C\c3cc(CN4CCCCC4)c(O)c(OC)c3)C2=O)cc(CN2CCCCC2)c1O :: 1.32 µM
CC1Cc2c(N)nc(N3CCOCC3)nc2NC1=O (stereo not drawn) :: > 100 µM
O=C(O[C@H]1CN[C@H](C#Cc2cc3ncnc(Nc4ccc(OCc5cccc(F)c5)c(Cl)c4)c3s2)C1)N1CCOCC1 :: 8.12 µM

# lookup: TGI of CC1OC(O[C@H]2/C=C/C=C/C=C/C=C/C=C/C=C/C=C/[C@H](C)[C@@H](O)[C@@H](C)[C@H](C)OC(=O)C[C@H](O)C[C@H](O)CC[C@@H](O)[C@H](O)C[C@H](O)C[C@]3(O)C[C@H](O)[C@@H](C(=O)O)[C@H](C2)O3)C(O)C(N)C1O (stereo partly drawn)
20.9 µM

Now this one: Nc1nc(N)c2nc(-c3ccco3)cnc2n1
> 100 µM

Now the same for CC(C)(C)N1CC(OC(N)=O)C1
> 100 µM

Queued: CCCCCCCC(=O)OCC1OC(n2cc(F)c(=O)[nH]c2=O)C(NC(=O)OCc2ccccc2)C(OC(=O)CCCCCCC)C1O (stereo not drawn)
72 µM

Further, for CC(C)(C)OC(=O)Nc1cc(-c2ccccc2)co1 ?
69.1 µM

Proceed to N=c1oc2ccc(Cl)cc2cc1C(=O)NCc1ccccc1
> 100 µM

* * *

Test system: K-562 leukemia
Assay: NCI tumour cell line growth inhibition, 48 h
Parameter measured: TGI

Cc1ccc(S(=O)(=O)/N=C(\[O-])C2=C(c3ccccc3)NN(C)c3nc4cccc[n+]4nc32)cc1 :: > 100 µM

Moving on to the next compound.
Give the measured TGI of COc1ccc(C2SCC(=O)N2NC(=O)C(C)Oc2ccccc2Cl)cc1 (stereo not drawn) .
> 100 µM

* * *

Test system: RXF 393 renal
Assay: NCI tumour cell line growth inhibition, 48 h
Parameter measured: TGI

Nc1nc(N)c2nc(-c3ccco3)cnc2n1 :: > 100 µM

Look at this compound and give its reported TGI. COc1ccc(-c2nc(N)c3ncn(C4OC(CO)C(O)C4O)c3n2)cc1 (stereo unspecified)
> 100 µM

Entry to check: O=C(O[C@H]1CN[C@H](C#Cc2cc3ncnc(Nc4ccc(OCc5cccc(F)c5)c(Cl)c4)c3s2)C1)N1CCOCC1
> 16.6 µM

What do you have for C[C@@H](NC1CCC[C@@H]1O)c1ccccc1 (stereo partly specified) ?
> 100 µM

// same read-out, input: COc1ccc(CCCC(=O)O)c(C)c1
> 100 µM

Cc1ccc(C(=O)CCC2C(=O)CC(C)(C)CC2=O)cc1 , same question.
> 100 µM

Now this one: Cc1ccc(S(=O)(=O)/N=C(\[O-])C2=C(c3ccccc3)NN(C)c3nc4cccc[n+]4nc32)cc1
> 100 µM

What do you get for O=C1NC(=O)C(=O)C(c2nc3ccccc3s2)C1=O ?
> 100 µM

Thanks! And CC(=O)Nc1ccc2oc(=O)c3ccccc3c2c1 ?
> 100 µM

Moving on to CCc1n[nH]c(=O)n1NC(=O)c1ccccc1C(=O)O
> 100 µM

Same for CC([C@H]1CCC2C3CCC4CC5(CC[C@]4(C)C3CC[C@@]21C)c1ccccc1C(=O)N5C)N(C)C (stereo partly specified)
> 100 µM

* * *

Test system: NCI-H23 lung
Test: NCI tumour cell line growth inhibition, 48 h
Where a SMILES comes first, the peptide text is derived from it. [ ]: non-standard residue; d: D form. The star is where a group is joined. ξ: configuration not given here. Propanoyl(3-(4-MeO-Ph)) = COc1ccc(CCC(=O)*)cc1; Thr(3ξ) = CC(O)[C@H](N)C(=O)O; dNMeL = CN[C@H](CC(C)C)C(=O)O; OBn = c1ccc(CO*)cc1; ξLac = CC(O)C(=O)O
Parameter measured: TGI

Reference set, count: 6
O=C1C(Cl)=C(Nc2cccc(O)c2)C(=O)N1c1cccc(Cl)c1 :: > 100 µM
CC(C)(C)OC(=O)Nc1cc(-c2ccccc2)co1 :: > 100 µM
Cc1cc(O)c(/C=N/c2nc(-c3cccc([N+](=O)[O-])c3)cs2)c(=O)o1 :: > 100 µM
COc1cc2ccc(/C(C)=N/OC(C)=O)cc2cc1OC :: > 100 µM
O=C(OCC1CCCN2CCCCC12)c1ccncc1 (centres undefined) :: > 100 µM
CCn1cc(C(=O)N/N=C/c2cccc(F)c2)c(=O)c2cc(F)c(N3CCNC(C)C3)c(F)c21 (centres undefined) :: 3.45 µM

Would you mind telling me what TGI value was observed for CCOC(=O)C#Cc1ccc([N+](=O)[O-])cc1 ?
7.55 µM

And what about the compound O=C1/C=C/[C@@H](O)[C@@H]2C[C@@H](O)C[C@H]2/C=C/CCC[C@H](CO)O1 ?
> 100 µM

Next compound: CC(C)Cc1ccc(C(C)/C=C2\CCC(CN3CCCC3)C2=O)cc1 (centres undefined)
26.6 µM

Same question, CC12CC3(O)OC(O1)C1(COC(=O)c4ccccc4)C3CC21OC1OC(CO)C(O)C(O)C1O (centres undefined) this time
> 100 µM

Field entry: CN(C)CCNC1=CC(=O)c2c(O)ccc(O)c2C1=O
18.7 µM

Same read-out for O=C1/C(=C/c2ccccc2Br)COc2ccc(O)c(O)c21 ?
4.17 µM

Proceed to CCn1c(-c2ccc(C)cc2)cs/c1=N\C(P(=O)(O)O)P(=O)(O)O
> 100 µM

How about N#Cc1nn(C2OC(COC(=O)c3ccccc3)C(OC(=O)c3ccccc3)C2OC(=O)c2ccccc2)c2nc[nH]c(=O)c12 (centres undefined) ?
> 100 µM

Ok, now COc1cccc(-c2nc(-c3ccc(NC(=O)c4ccccc4)cc3)[nH]c2-c2ccnc(Br)c2)c1
> 100 µM

Also, COc1ccc(CCC(=O)OC(C)[C@H](NC(=O)[C@@H](CC(C)C)N(C)C(=O)[C@@H]2CCCN2C(=O)C(C)O)C(=O)OCc2ccccc2)cc1 (some centres undefined) (H-[ξLac]P[dNMeL][Thr(3ξ)](Propanoyl(3-(4-MeO-Ph)))-OBn) please.
> 100 µM

Next: CCCCCCCC(=O)OCC1OC(n2cc(F)c(=O)[nH]c2=O)C(NC(=O)OCc2ccccc2)C(OC(=O)CCCCCCC)C1O (centres undefined)
> 100 µM

Same for CC(C)c1cccc(C(C)C)c1N=C(N)C#N
> 100 µM

How about CCN(CC)Cc1cc(Nc2ccnc3cc(Cl)ccc23)cc(-c2ccc(Cl)cc2)c1O ?
> 100 µM

* * *

System: KM12 colon
Assay: NCI tumour cell line growth inhibition, 48 h
Examples of compounds with documented TGI follow.

Consider the reported TGI for these compounds:
CC1=C2C(=O)C(C)(C)C=C2C(=O)[C@](C)(O)C12CC2 :: > 1 µM
CC(C)(C)OC(=O)NC(Cc1ccc(OCc2ccccc2)cn1)C(=O)N1CCSCC1 (stereo not drawn) :: > 100 µM

Okay, now this compound:
Bench note: what TGI did NCC1OC(n2cnc3c(=O)[nH]c(N)nc32)C(O)C1O (stereo not drawn) show?
> 100 µM

Cited source for all entries: PubChem BioAssay (NCI)
